Test system: MOLT-4
Assay: Cytotoxicity assay (CCK-8), MOLT-4
Assay type: cell-based
Details: MOLT-4 cells, CCK-8, 72 h; read-out: Cytotoxic results IC50, MOLT-4
measure.name: IC50 (nM)
Respond with the bare value in nM.

Inquiry: Fill in IC50 for CC(/C=C/C(=O)NO)=C\[C@@H](C)C(=O)c1ccc(N(C)C)cc1 [TSA, trichostatin A, reference compound] tested with MOLT-4.
Reply text: 30

----------
Tested on: MCF-7
Experiment: Cytotoxicity assay (CCK-8), MCF-7
Format: cell-based
Conditions: MCF-7 cells, CCK-8, 72 h; read-out: Cytotoxic results IC50, MCF-7
measure.name: pIC50
Note on units: pIC50 is unitless, being -log10 of a concentration expressed in mol/L.

Inquiry: Please look at CC(/C=C/C(=O)NO)=C\[C@@H](C)C(=O)c1ccc(N(C)C)cc1 [TSA, trichostatin A, reference compound] and tell me its recorded pIC50 on MCF-7.
Reply text: 6.15

----------
Assay: Cytotoxicity assay (CCK-8), DU145
Assay type: cell-based
Settings: human; DU145 cells, CCK-8, 72 h; read-out: Cytotoxic results IC50, DU145
measure.name: IC50 at 72 h (µM)
A number alone suffices; assume µM.

Inquiry: Name the recorded IC50 at 72 h of the item COC(=O)c1c(C)cc(O)cc1Oc1cc(C)cc(O)c1 in your answer.
Reply text: 9.1

----------
Tested on: A549
Test: Cytotoxicity assay (CCK-8), A549
Assay type: cell-based
Settings: A549 cells, CCK-8, 72 h; read-out: Cytotoxic results IC50, A549
measure.name: IC50 (nM)
Reply with just the number (in nM).

Inquiry: Give reported IC50 value for CC(/C=C/C(=O)NO)=C\[C@@H](C)C(=O)c1ccc(N(C)C)cc1 [TSA, trichostatin A, reference compound]
Reply text: 300

----------
System: HL7702
Test: Cytotoxicity assay (CCK-8), HL7702
Type: cell-based
Settings: HL7702 cells, CCK-8, 72 h; read-out: Cytotoxic results IC50, HL7702
measure.name: pIC50
Quick note: pIC50 means taking -log10 of the concentration in moles per liter.

Inquiry: Fetch value of pIC50 on HL7702 for CC(/C=C/C(=O)NO)=C\[C@@H](C)C(=O)c1ccc(N(C)C)cc1 [TSA, trichostatin A, reference compound] .
Reply text: 7.05

----------
System: H1975
Assay: Cytotoxicity assay (CCK-8), H1975
Type: cell-based
Settings: H1975 cells, CCK-8, 72 h; read-out: Cytotoxic results IC50, H1975
Protocol: Cytotoxic activities of the isolated compounds 1–17 and trichostatin A (TSA, positive control) against 10 tumor cell lines (K562, MCF-7, A549, Huh-7, H1975, HeLa, HL7702, HL60, MOLT-4, and DU145) were tested. […]. Cytotoxicity was assayed with the CCK-8 (Dojindo, Japan) method. […] A cell viability assay was determined with the CCK-8 (Dojindo, Japan) assay. […] After 72 h incubation, CCK-8 reagent was added, and absorbance was measured at 450 nm using an Envision 2104 multilabel reader (PerkinElmer, USA). […]
measure.name: IC50
Put down the number, then write its unit next to it.

Inquiry: Hello, please tell me recorded IC50 for this one: CC(/C=C/C(=O)NO)=C\[C@@H](C)C(=O)c1ccc(N(C)C)cc1 [TSA, trichostatin A, reference compound]
Reply text: 0.09 µM

----------
Experiment: Cytotoxicity assay (CCK-8), K562
Format: cell-based
Conditions: human; K562 cells, CCK-8, 72 h; read-out: Cytotoxic results IC50, K562
measure.name: IC50 at 72 h (µM)
Please state the figure in µM; there is no need to write the unit.

Inquiry: For the compound COC(=O)c1c(C)cc(O)cc1Oc1cc(C)cc(O)c1 [Compound 3, Diorcinol L] , report IC50 at 72 h.
Reply text: 43.5
